Reference for the values: ChEMBL document CHEMBL1138652

Overview of recorded pIC50 for various molecules
- measurement-target: Coagulation factor X (Homo sapiens)
- Sequence (P00742 41-179 limits assumed): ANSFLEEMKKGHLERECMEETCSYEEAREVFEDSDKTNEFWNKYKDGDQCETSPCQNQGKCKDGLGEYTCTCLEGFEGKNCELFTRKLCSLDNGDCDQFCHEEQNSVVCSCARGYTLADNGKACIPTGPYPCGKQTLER
- Sequence (P00742 235-488 limits assumed): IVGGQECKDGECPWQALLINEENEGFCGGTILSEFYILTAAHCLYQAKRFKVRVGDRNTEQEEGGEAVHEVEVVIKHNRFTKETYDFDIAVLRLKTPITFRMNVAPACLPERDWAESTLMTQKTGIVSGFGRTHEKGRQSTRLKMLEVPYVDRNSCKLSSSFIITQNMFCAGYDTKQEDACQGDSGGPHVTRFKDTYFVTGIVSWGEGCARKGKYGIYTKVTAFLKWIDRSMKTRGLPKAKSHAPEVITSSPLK
Answer as the number alone; pIC50 is minus log10 of concentration in mol/L.

>>> observed_measurement("COC[C@@H](NC(=O)c1ccc(Cl)s1)C(=O)Nc1ccc(N2CCOCC2=O)c(Cl)c1")
7.89
>>> observed_measurement("O=C(CNC(=O)c1ccc(Cl)s1)Nc1ccc(N2CCOCC2=O)cc1")
6.15
>>> observed_measurement("COC[C@@H](NC(=O)c1ccc(Cl)s1)C(=O)Nc1ccc(N2CCOCC2=O)c(C(F)(F)F)c1")
7.85
>>> observed_measurement("CC(C)C[C@H](NC(=O)c1ccc(Cl)s1)C(=O)Nc1ccc(N2CCOCC2=O)cc1")
6.89
>>> observed_measurement("COC[C@@H](NC(=O)c1ccc(Cl)s1)C(=O)Nc1ccc(N2CCOCC2=O)c(F)c1")
7.66
>>> observed_measurement("Cc1cc(NC(=O)[C@@H](C)NC(=O)c2ccc(Cl)s2)ccc1N1CCOCC1=O")
7.82
>>> observed_measurement("CC(C)[C@@H](NC(=O)c1ccc(Cl)s1)C(=O)Nc1ccc(N2CCOCC2=O)cc1")
7.18
>>> observed_measurement("CC(C)C[C@@H](NC(=O)c1ccc(Cl)s1)C(=O)Nc1ccc(-n2ccccc2=O)cc1")
7.80
>>> observed_measurement("O=C(N[C@H](C(=O)Nc1ccc(N2CCOCC2=O)cc1)c1ccccc1)c1ccc(Cl)s1")
7.59
>>> observed_measurement("CCCOC[C@@H](NC(=O)c1ccc(Cl)s1)C(=O)Nc1ccc(N2CCOCC2=O)c(C)c1")
7.92

Data request, read-out pIC50, for C[C@@H](NC(=O)c1ccc(Cl)s1)C(=O)Nc1ccc(N2CCOCC2=O)cc1
7.23

Another molecule: CCC[C@@H](NC(=O)c1ccc(Cl)s1)C(=O)Nc1ccc(N2CCOCC2=O)c(C)c1
8.02

# repeat for COCCOC[C@@H](NC(=O)c1ccc(Cl)s1)C(=O)Nc1ccc(N2CCOCC2=O)c(C)c1
7.96

O=C(N[C@@H](C(=O)Nc1ccc(N2CCOCC2=O)cc1)c1ccccc1)c1ccc(Cl)s1 ?
7.54
